Sourced from PubChem BioAssay

target: Torsin-1A (Homo sapiens) (UniProt O14656); assay: small-molecule binders of mutant TOR1A in lysate, primary screen, cell lysate, small-molecule microarray, COS7 lysate, 635/667 nm fluorescence (AID 1150); conditions: COS7 hTOR1A mutant lysate, 635 nm fluorescence, higher = more signal;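 further: score pools 667 nm emission and signal to noise measuring lysate protein binding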
Sequence (O14656 whole entry, looked up): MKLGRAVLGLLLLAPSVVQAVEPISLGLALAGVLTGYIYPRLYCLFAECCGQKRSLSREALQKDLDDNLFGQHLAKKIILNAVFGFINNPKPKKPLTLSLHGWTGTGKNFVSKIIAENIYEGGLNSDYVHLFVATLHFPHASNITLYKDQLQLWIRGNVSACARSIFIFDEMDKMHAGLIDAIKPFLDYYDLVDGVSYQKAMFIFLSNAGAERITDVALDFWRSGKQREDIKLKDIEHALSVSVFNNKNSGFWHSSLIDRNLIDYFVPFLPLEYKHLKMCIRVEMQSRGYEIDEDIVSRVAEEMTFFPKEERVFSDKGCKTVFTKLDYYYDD
EXPERIMENTAL_ENDPOINT: composite z-score

The following compounds have reported results that may help.
Input line: Can you share its composite z-score? I mean this compound: O=C1OCC=C[C@H]2OC34C=CCN(c5ccc6ccccc6c5)C(=O)[C@H]3N(CCCO)C(=O)[C@@H]4[C@@H]12 (stereo partly drawn)
Output line: -1.38

Input line: Can you share its composite z-score? I mean this compound: [N-]=[N+]=NCc1ccccc1C[C@@]1(C(=O)NCC(O)CO)N=C(c2ccc(OCCCO)cc2)O[C@@H]1c1ccccc1CN=[N+]=[N-] (stereo partly drawn)
Output line: 1.39

Next:
Input line: Can you share its composite z-score? I mean this compound: O=C1OCCC=C[C@H]2OC34C=CCN(c5ccc6ccccc6c5)C(=O)[C@H]3N(CCCCCO)C(=O)[C@@H]4C12 (stereo partly drawn)
Output line: 1.8

----------
experiment: small-molecule microarray binders of probe aLefty2, primary screen, biochemical, biotinylated probe, 635/667 nm fluorescence (AID 1094); settings: higher = more signal;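 further: score merges spot fluorescence near 667 nm with spot signal-to-noise ratio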
EXPERIMENTAL_ENDPOINT: composite z-score
// print number alone

Input line: Can you share its composite z-score? I mean this compound: `COCCOC(=O)N1C(=O)[C@@]2(c3cc(C#CCCO)ccc31)[C@H](c1ccccc1OCCO)N1[C@H](c3ccccc3)[C@H](c3ccccc3)OC(=O)[C@H]1[C@@H]2C(=O)N1CCN(c2ncccn2)CC1`
Output line: 0.571

Next:
Input line: Can you share its composite z-score? I mean this compound: COc1cccc(C(=O)O[C@H]2CC[C@]3(C)C4=C(CCC3C2(C)C)[C@]2(C)CC[C@H]([C@H](C)CCCC(C)C)[C@@]2(C)CC4)c1 (some centres undefined)
Output line: -0.082

Input line: Can you share its composite z-score? I mean this compound: CC(C)N1CC=CC23O[C@@H]4C=CCOC(=O)[C@@H]4[C@H]2C(=O)N(CCO)[C@@H]3C1=O (some centres undefined)
Output line: -0.328

Input line: Can you share its composite z-score? I mean this compound: `COc1ccc(C(=O)Nc2cccc(CN3C(=O)[C@]4(O[C@H](CC(=O)N5CCC[C@H]5CO)[C@@H]([Si](C)(C)c5ccc(OC)cc5)[C@@H]4C)c4ccccc43)c2)cc1`
Output line: -0.181

Input line: Can you share its composite z-score? I mean this compound: `O=c1cccc(CCc2ccccc2)o1`
Output line: -0.117

Input line: Can you share its composite z-score? I mean this compound: `COCCOC(=O)N1C(=O)[C@@]2(c3cc(C#CCNC(N)=O)ccc31)[C@H](c1ccc(O)cc1)N1[C@H](c3ccccc3)[C@H](c3ccccc3)OC(=O)[C@H]1[C@@H]2C(=O)Nc1nc2ccccc2s1`
Output line: 0.218

Input line: Can you share its composite z-score? I mean this compound: `Cc1ccc([C@H]2C(C(=O)O)=C[C@@H](C)N2S(=O)(=O)c2ccc(C)cc2)cc1`
Output line: 0.0754

Input line: Can you share its composite z-score? I mean this compound: `CC(C)Cc1ccc(CN2CC[C@@H](NS(=O)(=O)c3ccccc3)C2)cc1`
Output line: -0.296

Input line: Can you share its composite z-score? I mean this compound: O=C1C2C=CC(C(O)c3ccc(F)cc3)N(Nc3ccccc3)C2C(=O)N1c1ccccc1 (centres undefined)
Output line: 0.388

----------
biological target: NADPH oxidase 2 (Homo sapiens); test: NOX2-dependent H2O2 signal modulators, primary screen, NOX inhibitor project, cell-based, HEK293-NOX2, PMA-stimulated, Amplex Red fluorescence (AID 1159); conditions: 45 min, higher = more signal, called active from +8 up or from −8 down; further: test concentration not given here
Label Fulfilled when z-score >= -0.6; otherwise Not fulfilled.

Input line: Quick check, z-score >= -0.6? `Cc1ccc(S[C@]2(C(=O)O)CC(=O)N(C3Cc4ccccc4C3)[C@@H]2c2ccc(CO)cc2I)cc1`
Output line: Fulfilled

Input line: Quick check, z-score >= -0.6? CS(=O)(=O)CCOC(=O)C1=CC(CCCO)=CC(c2cccs2)N(Cc2cc3c(cc2Br)OCO3)C=C1C(=O)OCCS(C)(=O)=O (configuration not stated)
Output line: Not fulfilled

Next:
Input line: Quick check, z-score >= -0.6? `C=C(CCCC)/C(=C/C[C@H](OC(C)=O)c1ccc(CO)o1)c1cnc2ccccc2c1`
Output line: Not fulfilled

Input line: Quick check, z-score >= -0.6? `CCCCC=C[C@@H](NC(=O)c1cccs1)c1ccccc1`
Output line: Not fulfilled

Input line: Quick check, z-score >= -0.6? `C=CC[C@@]1(C(=O)O)N=C(c2ccc(OCCCO)cc2)O[C@@H]1c1ccccc1N=[N+]=[N-]`
Output line: Not fulfilled

Input line: Quick check, z-score >= -0.6? `COCCOC(=O)N1C(=O)[C@@]2(c3cc(C#CC4=CCCCC4)ccc31)[C@H](C(=O)NC[C@H](O)c1ccccc1)[C@H]1C(=O)O[C@H](c3ccccc3)[C@H](c3ccccc3)N1[C@@H]2c1ccc(O)cc1`
Output line: Fulfilled

----------
assay: S. cerevisiae RM11-1a growth modifiers, primary screen, strain RM11-1a, OD600, basal, 24 h (AID 1177); conditions: OD600, 24 h, higher = more signal, called active from +8 up or from −8 down;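 further: cultures grown under basal conditions with no added stressor; test concentration not given here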
The source made the active and inactive calls.
EXPERIMENTAL_ENDPOINT: z-score

The following compounds have reported results that may help.
Input line: Can you share its z-score? I mean this compound: `COC(=O)c1c(CC[C@@H](CO)NC(=O)N[C@@H](Cc2ccccc2)Cn2cc(C3(O)CCCCC3)nn2)oc(C(C)=O)c1C(=O)OC`
Output line: -2.6 (inactive)

Input line: Can you share its z-score? I mean this compound: `[N-]=[N+]=Nc1ccccc1C[C@]1(C(=O)NCCN2CCOCC2)N=C(c2ccc(OCCCO)cc2)O[C@H]1c1ccccc1`
Output line: -0.52 (inactive)

Then there is this compound:
Input line: Can you share its z-score? I mean this compound: `CC(C)NC(=O)[C@@]1(Cc2ccccc2I)c2ccccc2C(=O)N(Cc2ccccc2)[C@H]1c1ccc(CO)cc1`
Output line: -0.0378 (inactive)
